The origin of these recorded values is ChEMBL document CHEMBL1140915.

- METHOD_NOTES: AUC in rat at 10 mg/kg, po administered with 20% HPBCD
- Assay type: ADME, organism-based
- Set-up: dose 10 mg/kg, route oral
- TEST_CONDITIONS: plasma
Each entry below lists one item and its recorded AUC value.
Response body: numeric value in µM·h, unit text excluded.

These solved cases illustrate the format of a correct answer.
>>> meas_value("C=CCNC(=O)C(=O)C(CCCC)NC(=O)[C@@H]1[C@@H]2[C@H](CN1C(=O)[C@@H](NC(=O)NC(CN1C(=O)CC(C)(C)CC1=O)C(C)(C)C)C1CCCCC1)C2(C)C (single isomer, unassigned)")
0.45
>>> meas_value("C=CCNC(=O)C(=O)C(CCCC)NC(=O)[C@@H]1[C@@H]2[C@H](CN1C(=O)[C@@H](NC(=O)NC(CN1C(=O)CC(C)(C)CC1=O)C(C)(C)C)C(C)(C)C)C2(C)C (single isomer, unassigned)")
1.58

Exercise: Need AUC, item C=CCNC(=O)C(=O)C(CCC1CC1)NC(=O)[C@@H]1[C@@H]2[C@H](CN1C(=O)[C@@H](NC(=O)NC(CN1C(=O)CC(C)(C)CC1=O)C(C)(C)C)C(C)(C)C)C2(C)C (single isomer, unassigned)
Solution: 0.5

* * *

- METHOD_NOTES: Inhibition of HCV NS3 protease in absence of human serum
- Design: species or system Hepacivirus hominis
Field 'label' (enum: label 1 / label 0). Set to label 1 when Ki is strictly under 6 nM; else label 0.

>>> group_label("C=CCNC(=O)C(=O)C(CCCC)NC(=O)[C@@H]1[C@@H]2[C@H](CN1C(=O)[C@@H](NC(=O)NC(CN1C(=O)CC(C)(CC)CC1=O)C(C)(C)C)C(C)(C)C)C2(C)C (single isomer, unassigned)")
"label 0"
>>> group_label("C=CCNC(=O)C(=O)C(CC1CCC1)NC(=O)[C@@H]1[C@@H]2[C@H](CN1C(=O)[C@@H](NC(=O)N[C@@H](CN1C(=O)CC(C)(C)CC1=O)C(C)(C)C)C(C)(C)C)C2(C)C (some centres undefined)")
"label 0"
>>> group_label("CCCCC(NC(=O)[C@@H]1[C@@H]2[C@H](CN1C(=O)[C@@H](NC(=O)N[C@@H](CN1C(=O)CC(C)(C)CC1=O)C(C)(C)C)C(C)(C)C)C2(C)C)C(=O)C(=O)NCc1ccccc1 (some centres undefined)")
"label 0"

Exercise: Please indicate whether the reported Ki of C=CCNC(=O)C(=O)C(CCCC)NC(=O)[C@@H]1[C@@H]2[C@H](CN1C(=O)[C@@H](NC(=O)N[C@@H](CN1C(=O)CCCC1=O)C(C)(C)C)C(C)(C)C)C2(C)C (some centres undefined) is strictly below 6 nM.
Solution: label 0

Exercise: Please indicate whether the reported Ki of C=CCNC(=O)C(=O)C(CCCC)NC(=O)[C@@H]1[C@@H]2[C@H](CN1C(=O)C(NC(=O)NC(CN1C(=O)CC(C)(C)CC1=O)C(C)(C)C)C1(C)CCCCC1)C2(C)C (single isomer, unassigned) is strictly below 6 nM.
Solution: label 1

* * *

- METHOD_NOTES: Selectivity for HCV NS3 protease over human neutrophil elastase
Each entry below lists one item and its recorded Ratio value.
Lab note: write the figure by itself, no unit.

These solved cases illustrate the format of a correct answer.
>>> meas_value("CCCCC(NC(=O)[C@@H]1[C@@H]2[C@H](CN1C(=O)[C@@H](NC(=O)NC(CN1C(=O)CC(C)(C)CC1=O)C(C)(C)C)C(C)(C)C)C2(C)C)C(=O)C(=O)NCCC (single isomer, unassigned)")
910
>>> meas_value("C=CCNC(=O)C(=O)C(CCCC)NC(=O)[C@@H]1[C@@H]2[C@H](CN1C(=O)[C@@H](NC(=O)NC(CN1C(=O)N(C)C(C)(C)C1=O)C(C)(C)C)C(C)(C)C)C2(C)C (single isomer, unassigned)")
1600
>>> meas_value("C=CCNC(=O)C(=O)C(CCCC)NC(=O)[C@@H]1[C@@H]2[C@H](CN1C(=O)[C@@H](NC(=O)NC(CN1C(=O)CCN(C)C1=O)C(C)(C)C)C(C)(C)C)C2(C)C (single isomer, unassigned)")
1400
>>> meas_value("CCCCC(NC(=O)[C@@H]1[C@@H]2[C@H](CN1C(=O)[C@@H](NC(=O)N[C@@H](CN1C(=O)CC(C)(C)CC1=O)C(C)(C)C)C(C)(C)C)C2(C)C)C(=O)C(=O)NC1CC1 (stereo not given in full)")
6100

The record that follows has no Ratio shown yet.
Exercise: Need Ratio, item CCCCC(NC(=O)[C@@H]1[C@@H]2[C@H](CN1C(=O)[C@@H](NC(=O)NC(CN1C(=O)CC(C)(C)CC1=O)C(C)(C)C)C(C)(C)C)C2(C)C)C(=O)C(=O)NCc1cccs1 (single isomer, unassigned)
Solution: 900
